Entry source: patent US9023398B2

Reported Dissolved amount values for the following compounds.
Experiment summary: Dissolution test of poorly-soluble substances using distilled water
Format: physicochemical
Setup conditions: water; elution time 120 min
Write the number in µg/mL without appending the unit.

Sample records with Dissolved amount:
{"columns": ["Compound", "Result units", "Dissolved amount"],
 "data": [
  ["CC(=O)SC[C@@H](C)C(=O)N1CCC[C@H]1C(=O)N[C@@H](Cc1ccccc1)C(=O)O [compound 24, Alacepril]", "µg/mL", 994.9],
  ["CCS(=O)(=O)CCn1c([N+](=O)[O-])cnc1C [compound 25, Tinidazole]", "µg/mL", 6034.2],
  ["O=[N+]([O-])O[C@H]1CO[C@H]2[C@@H]1OC[C@H]2O[N+](=O)[O-] [compound 30, Isosorbide Dinitrate]", "µg/mL", 3516.8]
]}

We next turn to a different compound, shown below.
Exercise: Fill blank: measured Dissolved amount of the compound NC(=O)N1c2ccccc2C=Cc2ccccc21 [compound 22, Carbamazepine] is ____.
Solution: 159.5

###

Experiment summary: Dissolution test of poorly-soluble substances using distilled water
Format: physicochemical
Setup conditions: water; elution time 360 min
Property label: Dissolved amount (µg/mL)
Write the number in µg/mL without appending the unit.

{"columns": ["Compound", "Result units", "Dissolved amount"],
 "data": [
  ["CC(=O)Nc1nnc(S(N)(=O)=O)s1 [compound 23, Acetazolamide]", "µg/mL", 1212.0],
  ["NC(N)=Nc1nc(CSCCC(N)=NS(N)(=O)=O)cs1 [Comparative Example 17, Famotidine]", "µg/mL", 1497.4],
  ["CCn1cc(C(=O)O)c(=O)c2cc(F)c(N3CCNCC3)cc21 [compound 27, Norfloxacin]", "µg/mL", 395.5]
]}

Exercise: Fill blank: measured Dissolved amount of the compound COc1ccc2c(c1)c(CC(=O)O)c(C)n2C(=O)c1ccc(Cl)cc1 [compound 20, Indomethacin] is ____.
Solution: 8.2

Exercise: Next entry: CC(C)(Sc1cc(C(C)(C)C)c(O)c(C(C)(C)C)c1)Sc1cc(C(C)(C)C)c(O)c(C(C)(C)C)c1 [Comparative Example 5-3, Probucol]
Solution: 9.7

###

Experiment summary: Dissolution test of poorly-soluble substances using distilled water
Assay type: physicochemical
Setup conditions: water; elution time 1 min
Reported Dissolved amount values for the following compounds.
Write the number in µg/mL without appending the unit.

{"columns": ["Compound", "Result units", "Dissolved amount"],
 "data": [
  ["CC(=O)Oc1ccccc1C(=O)O", "µg/mL", 1831.9],
  ["CC(=O)O[C@]1(C(C)=O)CC[C@H]2[C@@H]3C=C(Cl)C4=CC(=O)CC[C@]4(C)[C@H]3CC[C@@]21C [Comparative Example 3-2, Chlormadinone acetate]", "µg/mL", 0.6],
  ["Cn1c(=O)c2[nH]cnc2n(C)c1=O", "µg/mL", 7082.2]
]}

Exercise: Fill blank: measured Dissolved amount of the compound `CC(C)(Sc1cc(C(C)(C)C)c(O)c(C(C)(C)C)c1)Sc1cc(C(C)(C)C)c(O)c(C(C)(C)C)c1` is ____.
Solution: 0.7

Exercise: Next entry: `NC(N)=Nc1nc(CSCCC(N)=NS(N)(=O)=O)cs1`
Solution: 1162.9

Exercise: Next entry: CC1(C)[C@@H](O[C@H]2O[C@H](C(=O)O)[C@@H](O)[C@H](O)[C@H]2O[C@@H]2O[C@H](C(=O)O)[C@@H](O)[C@H](O)[C@H]2O)CC[C@]2(C)[C@H]3C(=O)C=C4[C@@H]5C[C@@](C)(C(=O)O)CC[C@]5(C)CC[C@@]4(C)[C@]3(C)CC[C@@H]12 [Comparative Example 16, Ammonium Glycyrrhizinate]
Solution: 2668.0
